biological target: UniProtKB P35968; assay: Kinase activity test (ReactionBiology), % enzyme activity relative to DMSO; format: biochemical; parameters: purchased ReactionBiology; settings: VEGFR2; 1 uM; replicate Data 1;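 also: VEGFR2 was one member of a ten-kinase screening panel testing marketed FDA-approved drugs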
Sequence (P35968 20-1356): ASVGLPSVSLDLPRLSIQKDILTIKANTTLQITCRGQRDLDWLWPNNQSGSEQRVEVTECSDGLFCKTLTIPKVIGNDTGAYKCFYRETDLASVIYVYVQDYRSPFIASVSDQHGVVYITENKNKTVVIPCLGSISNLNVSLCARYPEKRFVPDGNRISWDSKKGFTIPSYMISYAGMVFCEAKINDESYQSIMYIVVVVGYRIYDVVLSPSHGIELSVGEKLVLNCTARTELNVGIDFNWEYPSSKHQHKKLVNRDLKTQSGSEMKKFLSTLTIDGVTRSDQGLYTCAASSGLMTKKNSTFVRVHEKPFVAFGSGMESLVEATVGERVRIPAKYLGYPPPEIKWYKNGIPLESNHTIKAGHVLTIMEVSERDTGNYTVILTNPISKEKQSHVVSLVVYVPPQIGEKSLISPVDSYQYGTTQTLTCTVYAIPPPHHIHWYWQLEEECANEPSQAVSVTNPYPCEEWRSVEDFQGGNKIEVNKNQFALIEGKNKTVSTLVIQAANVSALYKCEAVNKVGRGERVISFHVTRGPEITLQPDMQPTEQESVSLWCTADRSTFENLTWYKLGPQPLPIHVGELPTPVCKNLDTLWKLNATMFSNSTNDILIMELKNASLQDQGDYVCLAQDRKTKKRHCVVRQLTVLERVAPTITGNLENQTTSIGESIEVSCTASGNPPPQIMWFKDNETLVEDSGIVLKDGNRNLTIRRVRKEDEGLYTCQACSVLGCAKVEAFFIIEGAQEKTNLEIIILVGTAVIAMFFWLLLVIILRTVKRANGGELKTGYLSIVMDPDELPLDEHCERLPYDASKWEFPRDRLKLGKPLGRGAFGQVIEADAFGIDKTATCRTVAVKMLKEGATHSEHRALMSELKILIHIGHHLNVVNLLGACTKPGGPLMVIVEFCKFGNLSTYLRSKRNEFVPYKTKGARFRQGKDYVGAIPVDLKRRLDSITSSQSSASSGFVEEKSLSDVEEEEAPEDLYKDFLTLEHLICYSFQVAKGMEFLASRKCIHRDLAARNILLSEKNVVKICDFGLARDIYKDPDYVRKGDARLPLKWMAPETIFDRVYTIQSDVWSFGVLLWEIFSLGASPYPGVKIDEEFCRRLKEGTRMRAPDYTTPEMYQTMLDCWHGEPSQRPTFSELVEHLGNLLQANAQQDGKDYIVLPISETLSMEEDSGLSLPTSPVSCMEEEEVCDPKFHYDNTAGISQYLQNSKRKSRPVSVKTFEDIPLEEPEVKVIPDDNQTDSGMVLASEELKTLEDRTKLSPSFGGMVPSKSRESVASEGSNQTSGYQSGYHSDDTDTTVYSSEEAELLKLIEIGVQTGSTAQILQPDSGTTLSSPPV
Examples of molecules with documented % Enzyme Activity (relative to DMSO controls), Data 1 follow.
measured-metric: % Enzyme Activity (relative to DMSO controls), Data 1 (%)

{"molecule": "CC(C)CN(C[C@@H](O)[C@H](Cc1ccccc1)NC(=O)O[C@H]1CO[C@H]2OCC[C@H]21)S(=O)(=O)c1ccc(N)cc1", "units-label": "%", "endpoint-value": 105.45}
{"molecule": "CCCc1nn(C)c2c(=O)[nH]c(-c3cc(S(=O)(=O)N4CCN(C)CC4)ccc3OCC)nc12", "units-label": "%", "endpoint-value": 112.59}
{"molecule": "COc1ccc2c(c1)c(CC(=O)O)c(C)n2C(=O)c1ccc(Cl)cc1", "units-label": "%", "endpoint-value": 105.61}
{"molecule": "COc1ccc2c3c1O[C@H]1C[C@@H](O)C=C[C@@]31CCN(C)C2", "units-label": "%", "endpoint-value": 106.14}
{"molecule": "CCCCC1C(=O)N(c2ccccc2)N(c2ccccc2)C1=O", "units-label": "%", "endpoint-value": 102.9}
{"molecule": "C[C@]12CC[C@@H]3c4ccc(O)cc4CC[C@H]3[C@@H]1CCC2=O", "units-label": "%", "endpoint-value": 108.92}
{"molecule": "CC(=O)[C@]1(O)Cc2c(O)c3c(c(O)c2[C@@H](O[C@H]2C[C@H](N)[C@H](O)[C@H](C)O2)C1)C(=O)c1ccccc1C3=O", "units-label": "%", "endpoint-value": 111.85}
{"molecule": "C[C@H](O)[C@H](O)[C@H]1CNc2nc(N)[nH]c(=O)c2N1", "units-label": "%", "endpoint-value": 101.37}
{"molecule": "COc1cccc2c1C(=O)c1c(O)c3c(c(O)c1C2=O)C[C@@](O)(C(=O)CO)C[C@@H]3O[C@H]1C[C@H](N)[C@H](O)[C@H](C)O1", "units-label": "%", "endpoint-value": 112.09}
{"molecule": "O=C1Nc2ccc(Cl)cc2[C@@](C#CC2CC2)(C(F)(F)F)O1", "units-label": "%", "endpoint-value": 102.21}
{"molecule": "O=c1[nH]cc(F)c(=O)[nH]1", "units-label": "%", "endpoint-value": 118.24}
{"molecule": "Oc1ccc(O)cc1 [Hydroquinone]", "units-label": "%", "endpoint-value": 107.95}
{"molecule": "CN[C@H]1CC[C@@H](c2ccc(Cl)c(Cl)c2)c2ccccc21", "units-label": "%", "endpoint-value": 107.12}
{"molecule": "CN1[C@@H]2CC[C@H]1C[C@@H](OC(=O)c1c[nH]c3ccccc13)C2", "units-label": "%", "endpoint-value": 99.56}
{"molecule": "Cn1c(=O)cc(N2CCC[C@@H](N)C2)n(Cc2ccccc2C#N)c1=O", "units-label": "%", "endpoint-value": 108.92}
{"molecule": "CC(C)(Oc1ccc(CCNC(=O)c2ccc(Cl)cc2)cc1)C(=O)O [Bezafibrate]", "units-label": "%", "endpoint-value": 100.57}
{"molecule": "Cc1ccc(Cl)c(Nc2ccccc2C(=O)O)c1Cl [Meclofenamate]", "units-label": "%", "endpoint-value": 108.3}
{"molecule": "Cc1nc(=O)c2cc(CN(C)c3ccc(C(=O)N[C@@H](CCC(=O)O)C(=O)O)s3)ccc2[nH]1", "units-label": "%", "endpoint-value": 107.41}
{"molecule": "CC1(C)S[C@@H]2[C@H](NC(=O)[C@H](N)c3ccccc3)C(=O)N2[C@H]1C(=O)O", "units-label": "%", "endpoint-value": 103.06}
{"molecule": "CN1CC(=O)N2[C@H](c3ccc4c(c3)OCO4)c3[nH]c4ccccc4c3C[C@@H]2C1=O", "units-label": "%", "endpoint-value": 103.18}
{"molecule": "CN(C)CCCN1c2ccccc2Sc2ccc(Cl)cc21", "units-label": "%", "endpoint-value": 101.88}
{"molecule": "C[C@]12CCC(=O)C=C1CC[C@@H]1[C@@H]2[C@@H](O)C[C@@]2(C)[C@H]1CC[C@]2(O)C(=O)CO [Hydrocortisone]", "units-label": "%", "endpoint-value": 98.18}
{"molecule": "CCc1nc(N)nc(N)c1-c1ccc(Cl)cc1", "units-label": "%", "endpoint-value": 104.33}
